Listed next: entries and their corresponding logP.
test: Partition coefficient (logP); assay type: physicochemical; conditions: octanol/water
measured_endpoint: logP

>>> result_value("Cn1c(=O)c(Cc2ccc(C(=N)N)cc2)nc2cc(C3(C(=O)N4CCCC4)CC3)ccc21")
1.5
>>> result_value("Cn1c(=O)c(Cc2ccc(C(=N)N)cc2)nc2cc(C(C)(C)C(=O)N3CCCC3)ccc21")
1
>>> result_value("CCOC(=O)C(C)(C)c1ccc2c(c1)nc(Cc1ccc(C(=N)N)cc1)c(=O)n2C")
0.5
>>> result_value("CCOC(=O)C(C)(C)c1ccc2c(C)cc(Oc3ccc(C(=N)N)cc3)nc2c1")
1.7

* * *

target: Plasminogen (Homo sapiens, UniProt P00747)
Sequence (P00747 97-580 limits assumed): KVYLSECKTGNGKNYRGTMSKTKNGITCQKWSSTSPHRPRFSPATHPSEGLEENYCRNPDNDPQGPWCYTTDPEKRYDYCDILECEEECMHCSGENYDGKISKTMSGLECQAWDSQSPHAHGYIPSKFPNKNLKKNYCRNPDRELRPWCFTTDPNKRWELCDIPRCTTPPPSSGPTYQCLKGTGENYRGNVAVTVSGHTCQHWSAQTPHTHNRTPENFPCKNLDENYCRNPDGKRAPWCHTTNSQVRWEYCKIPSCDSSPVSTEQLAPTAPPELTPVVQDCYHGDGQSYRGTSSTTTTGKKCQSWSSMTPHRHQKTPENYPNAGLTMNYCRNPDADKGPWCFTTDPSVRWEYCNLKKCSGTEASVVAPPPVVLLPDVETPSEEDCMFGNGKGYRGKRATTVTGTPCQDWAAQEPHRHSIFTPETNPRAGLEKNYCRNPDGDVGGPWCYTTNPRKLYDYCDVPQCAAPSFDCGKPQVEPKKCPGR
Sequence (P00747 581-810 limits assumed): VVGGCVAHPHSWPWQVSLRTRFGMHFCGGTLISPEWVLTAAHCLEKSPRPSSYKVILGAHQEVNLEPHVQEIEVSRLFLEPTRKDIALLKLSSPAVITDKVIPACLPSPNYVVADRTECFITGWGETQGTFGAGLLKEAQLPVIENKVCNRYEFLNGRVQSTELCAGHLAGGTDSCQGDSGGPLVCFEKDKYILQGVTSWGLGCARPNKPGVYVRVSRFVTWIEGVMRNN
measured_endpoint: IC50 (µM)

>>> result_value("Cn1c(=O)c(Cc2ccc(C(=N)N)cc2)nc2cc(C3(N(C(=O)CC(=O)O)C4CCCC4)CC3)ccc21")
36
>>> result_value("CCOC(=O)C(C)(C)c1ccc2c(c1)nc(Cc1ccc(C(=N)N)cc1)c(=O)n2C")
75
>>> result_value("Cn1c(=O)c(Cc2ccc(C(=N)N)cc2)nc2cc(C(C)(C)C(=O)N3CCCC3)ccc21")
53
>>> result_value("Cn1c(=O)c(Cc2ccc(C(=N)N)cc2)nc2cc(C3(C(=O)N4CCCC4)CC3)ccc21")
66
>>> result_value("Cn1c(=O)c(Cc2ccc(C(=N)N)cc2)nc2cc(C3(C(=O)N4CCCC4CO)CC3)ccc21 (stereo unspecified)")
72
>>> result_value("Cn1c(=O)c(Cc2ccc(C(=N)N)cc2)nc2cc(C(C)(C)C(=O)N3CCCCC3)ccc21")
60

* * *

Data export: IC50 values recorded with Prothrombin (Homo sapiens).
measured_endpoint: IC50 (nM)

>>> result_value("Cn1c(=O)c(Cc2ccc(C(=N)N)cc2)nc2cc(C(C)(C)C(=O)N3CCCC3)ccc21")
5
>>> result_value("Cn1c(=O)c(Cc2ccc(C(=N)N)cc2)nc2cc(C3(N(C(=O)CC(=O)O)C4CCCC4)CC3)ccc21")
15
>>> result_value("CCOC(=O)C(C)(C)c1ccc2c(c1)nc(Cc1ccc(C(=N)N)cc1)c(=O)n2C")
10
>>> result_value("Cn1c(=O)c(Cc2ccc(C(=N)N)cc2)nc2cc(C(C)(C)C(=O)N3CCNCC3)ccc21")
68
>>> result_value("Cn1c(=O)c(Cc2ccc(C(=N)N)cc2)nc2cc(C3(C(=O)N4CCCC4C(=O)NCC(=O)O)CC3)ccc21 (configuration not stated)")
190
>>> result_value("CCOC(=O)C1(c2ccc3c(C)cc(Oc4ccc(C(=N)N)cc4)nc3c2)CCCC1")
30
>>> result_value("Cn1c(=O)c(Cc2ccc(C(=N)N)cc2)nc2cc(C(C)(C)C(=O)N3CCCCC3)ccc21")
8
